Reference source for all entries: ChEMBL document CHEMBL1201862

targetOrTestSystem: DNA dC->dU-editing enzyme APOBEC-3G (Homo sapiens, UniProt Q9HC16)
Sequence (Q9HC16 whole entry): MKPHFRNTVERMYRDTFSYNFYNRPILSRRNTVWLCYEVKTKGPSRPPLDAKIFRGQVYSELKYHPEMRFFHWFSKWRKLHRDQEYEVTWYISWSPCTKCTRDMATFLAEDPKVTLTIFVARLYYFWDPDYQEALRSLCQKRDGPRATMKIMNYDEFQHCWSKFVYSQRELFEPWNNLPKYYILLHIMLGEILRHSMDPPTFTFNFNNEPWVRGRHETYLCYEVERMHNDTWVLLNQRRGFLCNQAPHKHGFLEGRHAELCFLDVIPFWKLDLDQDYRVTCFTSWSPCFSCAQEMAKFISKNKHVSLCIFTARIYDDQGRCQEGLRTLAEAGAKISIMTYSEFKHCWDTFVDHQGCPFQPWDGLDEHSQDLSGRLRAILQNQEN
assayComment: Dose Response confirmation of small molecule APOBEC3G DNA Deaminase Inhibitors via a fluorescence-based single-stranded DNA deaminase assay. [Related pubchem assays (depositor defined):AID493012, AID493028]
Format: functional
Activity calls are given as the source filed them.
readoutName: IC50

[[record]]
mol = "CCN1CCN(C(=S)c2ccc(Cl)cc2)CC1"
valuereported = "5.06 µM (active)"

[[record]]
mol = "Cn1c(S)nnc1-c1sc2ccccc2c1Cl"
valuereported = "0.936 µM (active)"

[[record]]
mol = "O=c1c2c3c(sc2n2c(S)nnc2n1-c1ccccc1)CCC3"
valuereported = "3.72 µM (active)"

[[record]]
mol = "O=C1CCC(C(=O)Nc2cccc(S(=O)(=O)Nc3ccccc3F)c2)=NN1"
valuereported = "24.6 µM (active)"

[[record]]
mol = "Cc1ccc(C)c(-n2sc3ccc(F)cc3c2=O)c1"
valuereported = "13.5 µM (active)"

[[record]]
mol = "CCN(CC)c1ccc(NC(=O)COc2ccccc2C)cc1S(=O)(=O)Nc1ccccc1OC"
valuereported = "70.1 µM (active)"

[[record]]
mol = "COC(=O)c1ccccc1NC(=O)c1sc(=S)n(C)c1N"
valuereported = "67.7 µM (active)"

[[record]]
mol = "Sc1nnc(C2CCCCC2)n1/N=C/c1ccncc1"
valuereported = "7.27 µM (active)"


---

# EC50 per record follows
targetOrTestSystem: UniProt Q9QUQ5
Sequence (Q9QUQ5 whole entry): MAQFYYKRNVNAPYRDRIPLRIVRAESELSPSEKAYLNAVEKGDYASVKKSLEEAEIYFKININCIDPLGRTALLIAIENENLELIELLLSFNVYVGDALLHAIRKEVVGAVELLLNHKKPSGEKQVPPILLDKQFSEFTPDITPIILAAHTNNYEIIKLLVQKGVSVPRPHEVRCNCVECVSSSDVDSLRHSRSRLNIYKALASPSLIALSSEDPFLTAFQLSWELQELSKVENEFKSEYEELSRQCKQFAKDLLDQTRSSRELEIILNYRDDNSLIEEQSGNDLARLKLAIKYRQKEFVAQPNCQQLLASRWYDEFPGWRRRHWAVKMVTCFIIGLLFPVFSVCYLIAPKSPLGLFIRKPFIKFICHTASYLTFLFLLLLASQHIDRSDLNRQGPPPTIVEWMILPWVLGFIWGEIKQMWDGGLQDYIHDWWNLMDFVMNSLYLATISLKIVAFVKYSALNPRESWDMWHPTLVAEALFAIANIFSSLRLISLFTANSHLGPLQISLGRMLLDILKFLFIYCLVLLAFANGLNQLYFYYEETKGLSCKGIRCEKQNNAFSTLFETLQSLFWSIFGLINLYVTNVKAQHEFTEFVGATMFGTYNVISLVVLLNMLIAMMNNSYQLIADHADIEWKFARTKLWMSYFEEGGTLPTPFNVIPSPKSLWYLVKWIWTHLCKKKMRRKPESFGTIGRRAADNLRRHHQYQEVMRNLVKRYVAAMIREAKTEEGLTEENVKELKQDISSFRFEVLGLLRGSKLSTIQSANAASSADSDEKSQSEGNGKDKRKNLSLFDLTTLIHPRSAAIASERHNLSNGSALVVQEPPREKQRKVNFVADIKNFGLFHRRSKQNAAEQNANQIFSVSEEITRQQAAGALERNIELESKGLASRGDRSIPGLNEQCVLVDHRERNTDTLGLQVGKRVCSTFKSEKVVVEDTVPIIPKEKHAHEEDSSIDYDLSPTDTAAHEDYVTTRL
assayComment: block of DAMGO-driven TRPC4 calcium entry – cell-based, HEK293 TRPC4/mu-opioid, Fluo-4 calcium, dose response (AID 434942);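 further: potency of inhibitors blocking the TRPC4 calcium response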
Assay type: functional
Calls of active or inactive are those of the source.
readoutName: EC50

[[record]]
compound = "CC(OCC(O)CN(C)CCOc1ccccc1)c1ccc(Cl)cc1 (stereo unspecified)"
valuereported = "3.76 µM (active)"

[[record]]
compound = "Cc1ccc2nc3c(c(N)c2c1)CCN3C"
valuereported = "2.37 µM (active)"

[[record]]
compound = "COc1ccc2c(c1)C=C(CN1CCC(CO)(CCc3ccccc3)CC1)CO2"
valuereported = "2.11 µM (active)"

[[record]]
compound = "CCOc1c(Cl)cc(CNC(C)C(O)c2ccccc2)cc1OC (stereo unspecified)"
valuereported = "1.33 µM (active)"

[[record]]
compound = "Fc1ccccc1COc1ccccc1CNCc1ccncc1"
valuereported = "7.5 µM (active)"

[[record]]
compound = "Cc1cccc2cc(CN(Cc3nnnn3Cc3ccccc3)C3CCCC3)c(O)nc12"
valuereported = "0.149 µM (active)"

[[record]]
compound = "CCOC(=O)c1c(NC(=O)C2CCCCC2C(=O)O)sc2c1CCCCC2 (stereo unspecified)"
valuereported = "5.96 µM (active)"

[[record]]
compound = "CCCCCn1c2c(c(=N)c3ccccc31)CCC2"
valuereported = "1.5 µM (active)"

[[record]]
compound = "O=[N+]([O-])c1ccc(CN2CCN(Cc3c[nH]c4ccccc34)CC2)cc1"
valuereported = "5.96 µM (active)"

[[record]]
compound = "Cc1c(CN2CCC(n3nccc3NC(=O)CCc3ccccc3)CC2)cnn1C"
valuereported = "0.421 µM (active)"

[[record]]
compound = "Cc1cc(Nc2ccccc2)nc2cc(O)ccc12"
valuereported = "3.76 µM (active)"


---

targetOrTestSystem: Nonstructural protein 1 (Influenza A virus)
Sequence (Q194T2 whole entry): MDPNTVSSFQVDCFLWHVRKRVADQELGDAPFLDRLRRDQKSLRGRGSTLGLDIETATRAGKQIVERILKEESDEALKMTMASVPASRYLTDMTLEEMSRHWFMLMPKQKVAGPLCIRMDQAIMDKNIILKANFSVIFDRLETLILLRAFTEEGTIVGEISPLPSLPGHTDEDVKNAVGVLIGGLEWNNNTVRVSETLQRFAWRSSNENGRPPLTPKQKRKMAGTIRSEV
Format: functional, Influenza A virus (A/California/07/2009(H1N1))
The source made the active and inactive calls.
# IC50 per record follows
readoutName: IC50

[[record]]
molecule = "CN1CCN(C(=S)SCC(=O)Nc2ccc(Cl)cc2C(=O)c2ccccc2)CC1"
readoutname = "IC50"
valuereported = "> 100 µM (active)"

[[record]]
molecule = "C[C@H](NC(=O)c1ccccc1)C(=O)Nc1nc(-c2ccccn2)cs1"
readoutname = "IC50"
valuereported = "16.3 µM (active)"

[[record]]
molecule = "COc1cc(OC)c(C2Nc3cccc4cccc(c34)N2)c(OC)c1"
readoutname = "IC50"
valuereported = "> 100 µM (active)"

[[record]]
molecule = "Cc1ccc(S(=O)(=O)NC(=O)Nc2ccc(N(C)C)cc2)cc1"
readoutname = "IC50"
valuereported = "44.1 µM (active)"

[[record]]
molecule = "CC1CC(C)CN(C(=O)c2ccc3c(c2NCCO)C(=O)c2ccccc2C3=O)C1 (stereo not drawn)"
readoutname = "IC50"
valuereported = "13 µM (active)"

[[record]]
molecule = "COc1ccccc1NC(=S)NN=C(C)c1ccccn1"
readoutname = "IC50"
valuereported = "25.8 µM (active)"

[[record]]
molecule = "Cc1nc2nc(C)n(CCN3CCOCC3)c(=O)c2c(-c2cccc([N+](=O)[O-])c2)c1C(=O)CCCCCCCCCCN1CCC(c2ccccc2)(c2ccccc2)CC1"
readoutname = "IC50"
valuereported = "21.9 µM (active)"

[[record]]
molecule = "O=[N+]([O-])c1cc(/C=N/N=C(/Nc2ccccn2)c2ccccn2)ccc1O"
readoutname = "IC50"
valuereported = "2.46 µM (active)"


---

targetOrTestSystem: Nucleotide-binding oligomerization domain-containing protein 2 (Homo sapiens, UniProt Q9HC29)
Sequence (Q9HC29 whole entry, the tested form may be a part): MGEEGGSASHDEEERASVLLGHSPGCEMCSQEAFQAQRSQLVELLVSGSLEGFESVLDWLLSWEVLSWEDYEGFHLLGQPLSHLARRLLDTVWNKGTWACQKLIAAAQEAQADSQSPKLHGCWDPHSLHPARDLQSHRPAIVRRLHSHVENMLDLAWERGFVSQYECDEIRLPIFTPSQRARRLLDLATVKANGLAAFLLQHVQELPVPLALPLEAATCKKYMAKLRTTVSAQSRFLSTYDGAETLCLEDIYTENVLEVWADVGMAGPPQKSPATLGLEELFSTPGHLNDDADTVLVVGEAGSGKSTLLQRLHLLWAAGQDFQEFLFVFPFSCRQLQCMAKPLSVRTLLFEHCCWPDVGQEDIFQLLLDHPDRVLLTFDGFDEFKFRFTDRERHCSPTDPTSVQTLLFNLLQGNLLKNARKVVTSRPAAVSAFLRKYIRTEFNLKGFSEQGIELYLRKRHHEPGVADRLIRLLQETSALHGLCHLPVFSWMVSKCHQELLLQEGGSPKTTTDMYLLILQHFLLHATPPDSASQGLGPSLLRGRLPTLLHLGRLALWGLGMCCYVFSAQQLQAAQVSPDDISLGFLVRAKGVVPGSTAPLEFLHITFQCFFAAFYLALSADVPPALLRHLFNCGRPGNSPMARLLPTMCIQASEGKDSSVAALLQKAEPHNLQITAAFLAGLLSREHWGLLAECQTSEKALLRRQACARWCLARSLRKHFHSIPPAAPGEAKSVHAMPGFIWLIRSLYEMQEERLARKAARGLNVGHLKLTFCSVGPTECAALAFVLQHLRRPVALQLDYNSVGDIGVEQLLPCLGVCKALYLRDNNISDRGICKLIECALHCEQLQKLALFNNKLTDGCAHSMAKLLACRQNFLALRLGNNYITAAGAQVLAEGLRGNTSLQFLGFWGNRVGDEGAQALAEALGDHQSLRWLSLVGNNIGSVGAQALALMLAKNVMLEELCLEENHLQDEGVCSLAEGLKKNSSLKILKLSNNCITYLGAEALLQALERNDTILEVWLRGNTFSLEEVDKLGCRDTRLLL
assayComment: inhibition of NOD2-driven NF-kB reporter – cell-based, luminescence, uHTS, HEK293 (AID 1566)
Format: functional
Active and inactive are the calls of the source.
Labels: active, inactive

[[record]]
mol = "Cc1ccc(NS(=O)(=O)c2cc(NC(=O)c3ccc4c(c3)NC(=O)CS4)ccc2Cl)c(C)c1"
categorylabel = "active"

[[record]]
mol = "Cc1ccc(O)c(/N=C/c2cc(Cc3ccccc3)cc([N+](=O)[O-])c2O)c1"
categorylabel = "active"

[[record]]
mol = "Cc1ccc(S(=O)(=O)/C(=C/Cl)NC(=O)c2ccccc2)cc1"
categorylabel = "active"

[[record]]
mol = "COc1ccc(/C=N/NS(=O)(=O)c2ccc(F)cc2)cc1COc1cc(F)ccc1[N+](=O)[O-]"
categorylabel = "inactive"


---

targetOrTestSystem: Sentrin-specific protease 7 (Homo sapiens);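 further: Luminescence-based dose-response confirmation of ultra-high-throughput screening hits, measuring inhibition of SENP7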
Sequence (Q9BQF6 whole entry): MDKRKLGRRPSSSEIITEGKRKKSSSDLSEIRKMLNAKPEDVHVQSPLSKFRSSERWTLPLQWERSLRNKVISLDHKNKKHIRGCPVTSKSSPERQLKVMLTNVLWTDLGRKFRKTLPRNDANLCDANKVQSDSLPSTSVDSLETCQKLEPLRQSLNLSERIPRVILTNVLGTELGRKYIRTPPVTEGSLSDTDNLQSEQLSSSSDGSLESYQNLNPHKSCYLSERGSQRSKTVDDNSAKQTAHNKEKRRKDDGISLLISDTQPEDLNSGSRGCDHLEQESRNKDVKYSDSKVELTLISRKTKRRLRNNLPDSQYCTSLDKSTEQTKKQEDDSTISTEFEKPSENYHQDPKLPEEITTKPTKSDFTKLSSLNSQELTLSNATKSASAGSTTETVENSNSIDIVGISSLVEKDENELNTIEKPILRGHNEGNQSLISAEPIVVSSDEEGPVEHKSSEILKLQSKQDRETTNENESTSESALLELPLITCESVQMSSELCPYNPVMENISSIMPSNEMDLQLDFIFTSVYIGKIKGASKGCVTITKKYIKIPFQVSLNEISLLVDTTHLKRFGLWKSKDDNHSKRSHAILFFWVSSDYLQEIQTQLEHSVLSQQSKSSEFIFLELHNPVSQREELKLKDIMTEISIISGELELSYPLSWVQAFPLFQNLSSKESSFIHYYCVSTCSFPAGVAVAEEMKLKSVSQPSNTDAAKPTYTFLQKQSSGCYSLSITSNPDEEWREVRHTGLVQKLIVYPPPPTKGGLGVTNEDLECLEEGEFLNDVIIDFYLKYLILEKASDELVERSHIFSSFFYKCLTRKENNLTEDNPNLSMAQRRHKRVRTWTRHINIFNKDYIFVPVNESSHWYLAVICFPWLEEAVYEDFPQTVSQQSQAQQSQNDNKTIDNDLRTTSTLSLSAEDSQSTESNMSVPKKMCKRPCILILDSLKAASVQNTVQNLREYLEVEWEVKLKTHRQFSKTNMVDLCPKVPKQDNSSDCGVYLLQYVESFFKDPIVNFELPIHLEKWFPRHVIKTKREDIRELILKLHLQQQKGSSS
Assay type: functional
Active and inactive are the calls of the source.
readoutName: IC50

[[record]]
mol = "Fc1ccc(COc2ccc(C(=S)N3CCCC3)cc2)cc1"
readoutname = "IC50"
valuereported = "5.33 µM (active)"

[[record]]
mol = "O=[N+]([O-])c1cccnc1NCCNc1ncc(C(F)(F)F)cc1Cl"
readoutname = "IC50"
valuereported = "6.52 µM (active)"

[[record]]
mol = "CCC(=O)N(C1=C(NC)C(=O)c2ccccc2C1=O)C(C)C"
readoutname = "IC50"
valuereported = "33.2 µM (active)"

[[record]]
mol = "CCO/C=C1/C(=O)N(c2ccc(OC)cc2)C(=O)c2ccccc21"
readoutname = "IC50"
valuereported = "25.8 µM (active)"

[[record]]
mol = "Nc1nc(-c2ccccc2)nc2sc3c(c12)CCCC3"
readoutname = "IC50"
valuereported = "3.08 µM (active)"

[[record]]
mol = "Cc1[nH]n(C(N)=S)c(=O)c1/N=N/c1ccccc1C(F)(F)F"
readoutname = "IC50"
valuereported = "12.7 µM (active)"

[[record]]
mol = "c1ccc(Nc2ncnc3c2oc2ccccc23)cc1"
readoutname = "IC50"
valuereported = "11.9 µM (active)"


---

targetOrTestSystem: Caspase-6 (Homo sapiens, UniProt P55212)
Sequence (P55212 whole entry): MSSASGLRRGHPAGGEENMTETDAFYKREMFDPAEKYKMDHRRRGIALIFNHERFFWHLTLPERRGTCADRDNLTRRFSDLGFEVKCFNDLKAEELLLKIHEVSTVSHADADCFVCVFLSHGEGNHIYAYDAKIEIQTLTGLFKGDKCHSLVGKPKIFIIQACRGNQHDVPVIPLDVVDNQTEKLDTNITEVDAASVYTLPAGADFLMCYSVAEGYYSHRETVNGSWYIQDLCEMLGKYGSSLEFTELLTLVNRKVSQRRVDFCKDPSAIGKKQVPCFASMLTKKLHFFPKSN
assayComment: inhibition of CASP6 peptide cleavage – biochemical, VEID-R110 fluorescence, cherry-pick, dose response (AID 720632)
Active and inactive are the calls of the source.
# AC50 per record follows
readoutName: AC50

[[record]]
compound = "O=C(Nc1cccnc1Cl)c1ccc(=O)oc1"
readoutname = "AC50"
valuereported = "22 µM (active)"

[[record]]
compound = "Cn1cnnc1SCC(=O)Nc1ncc([N+](=O)[O-])s1"
readoutname = "AC50"
valuereported = "3.04 µM (active)"

[[record]]
compound = "COc1cccc(C(=O)OCC(=O)Nc2sc3c(c2C(N)=O)CCC3)c1O"
readoutname = "AC50"
valuereported = "17.7 µM (active)"

[[record]]
compound = "O=C(O)CC1SC(N/N=C/c2ccc(-c3ccc(Cl)c([N+](=O)[O-])c3)o2)=NC1=O (stereo not given)"
readoutname = "AC50"
valuereported = "25.1 µM (active)"

[[record]]
compound = "Cc1ccc(C)c(-n2c3nc(=O)[nH]c(=O)c-3cc3cc([N+](=O)[O-])ccc32)c1"
readoutname = "AC50"
valuereported = "20.7 µM (active)"

